Tested on: HeLa/bcl-2 cells
experiment description: Anti-Fas antibody-dependent apoptosis inducing activity for HeLa/bcl-2 cells
Type: cell-based
measurement conditions: Drug concentration: 5 μM, added simultaneously with anti-Fas monoclonal antibody (CH11, 10 ng); 6 hours; Anti-Fas antibody = 100
What Rate of Caspase Activation, HeLa/bcl-2 cell was measured for each of the following?
Give the value in % but do not write % after it.

Value of measured Rate of Caspase Activation, HeLa/bcl-2 cell for the entry COC(=O)NC1C(C)OC(OC2C/C=C(\C)C3C=CC4C(OC5CC(OC6CCC(OC7CC(O)C(OC8CCC(O)C(C)O8)C(C)O7)C(C)O6)C(OC(C)=O)C(C)O5)C(C)CC(C)C4C3(C)C(=O)C3=C(O)C4(CC(C=O)=CC(O)C4/C=C/2C)OC3=O)CC1(C)[N+](=O)[O-] (stereo not drawn) : 964

Value of measured Rate of Caspase Activation, HeLa/bcl-2 cell for the entry COC(=O)NC1C(C)OC(OC2CC=C(C)C3C=CC4C(OC5C=CC(O)C(C)O5)C(C)CC(C)C4C3(C)C(=O)C3=C(O)C4(CC(C=O)=CC(OC(C)=O)C4C=C2C)OC3=O)CC1(C)[N+](=O)[O-] (stereo not drawn) : 526

Value of measured Rate of Caspase Activation, HeLa/bcl-2 cell for the entry COC(=O)NC1C(C)OC(OC2C/C=C(\C)C3C=CC4C(OC5CC(OC6CCC(OC7CC(OC(C)=O)C(O)C(C)O7)C(C)O6)C(OC(C)=O)C(C)O5)C(C)CC(C)C4C3(C)C(=O)C3=C(O)C4(CC(C=O)=CC(OC(C)=O)C4/C=C/2C)OC3=O)CC1(C)[N+](=O)[O-] (stereo not drawn) : 659

Value of measured Rate of Caspase Activation, HeLa/bcl-2 cell for the entry COC(=O)NC1C(C)OC(OC2CC=C(C)C3C=CC4C(OC5C=CC(OC(C)=O)C(C)O5)C(C)CC(C)C4C3(C)C(=O)C3=C(O)C4(CC(C=O)=CC(OC(C)=O)C4C=C2C)OC3=O)CC1(C)[N+](=O)[O-] (stereo not drawn) : 452

Value of measured Rate of Caspase Activation, HeLa/bcl-2 cell for the entry COC(=O)NC1C(C)OC(OC2C/C=C(\C)C3C=CC4C(O[Si](C)(C)C(C)(C)C)C(C)CC(C)C4C3(C)C(=O)C3=C(O)C4(CC(C=O)=CC(O)C4/C=C/2C)OC3=O)CC1(C)[N+](=O)[O-] (stereo not drawn) : 444

Value of measured Rate of Caspase Activation, HeLa/bcl-2 cell for the entry COC(=O)NC1C(C)OC(OC2C/C=C(\C)C3C=CC4C(OC5CCCCO5)C(C)CC(C)C4C3(C)C(=O)C3=C(O)C4(CC(C=O)=CC(OC(C)=O)C4/C=C/2C)OC3=O)CC1(C)[N+](=O)[O-] (stereo not drawn) : 460

* * *

Tested on: Enterococcus hirae ATCC10541
experiment description: Antibacterial activity, agar dilution method
Assay type: cell-based
Design: key: —: Inactive
measurement conditions: pH 7
measurement kind: MIC, EH

Field: example entries. Status: answers known.
compound	MIC, EH
COC(=O)NC1C(C)OC(OC2CC=C(C)C3C=CC4C(OC5C=CC(OC(C)=O)C(C)O5)C(C)CC(C)C4C3(C)C(=O)C3=C(O)C4(CC(C=O)=CC(OC(C)=O)C4C=C2C)OC3=O)CC1(C)[N+](=O)[O-] (stereo not drawn)	—
CC[Si](CC)(CC)OC1C=CC(OC2C(C)CC(C)C3C2C=CC2C(C)=CCC(OC4CC(C)([N+](=O)[O-])C(NC(=O)OC)C(C)O4)C(C)=CC4C(OC(C)=O)C=C(C=O)CC45OC(=O)C(=C5O)C(=O)C23C)OC1C (stereo not drawn)	—
COC(=O)NC1C(C)OC(OC2C/C=C(\C)C3C=CC4C(O[Si](C)(C)C(C)(C)C)C(C)CC(C)C4C3(C)C(=O)C3=C(O)C4(CC(C=O)=CC(O)C4/C=C/2C)OC3=O)CC1(C)[N+](=O)[O-] (stereo not drawn)	21 µg/mL
COC(=O)NC1C(C)OC(OC2C/C=C(\C)C3C=CC4C(OC5CC(OC6CCC(O)C(C)O6)C(OC(C)=O)C(C)O5)C(C)CC(C)C4C3(C)C(=O)C3=C(O)C4(CC(C=NO)=CC(O)C4/C=C/2C)OC3=O)CC1(C)[N+](=O)[O-] (stereo not drawn)	—
COC(=O)C=CC1=CC(O)C2/C=C(\C)C(OC3CC(C)([N+](=O)[O-])C(NC(=O)OC)C(C)O3)C/C=C(\C)C3C=CC4C(OC5CC(OC6CCC(OC7CC(O)C(OC8CCC(O)C(C)O8)C(C)O7)C(C)O6)C(OC(C)=O)C(C)O5)C(C)CC(C)C4C3(C)C(=O)C3=C(O)C2(C1)OC3=O (stereo not drawn)	—

Value of measured MIC, EH for the entry CCOC(OCC)C1=CC(O)C2/C=C(\C)C(OC3CC(C)([N+](=O)[O-])C(NC(=O)OC)C(C)O3)C/C=C(\C)C3C=CC4C(OC5CC(OC6CCC(OC7CC(O)C(OC8CCC(O)C(C)O8)C(C)O7)C(C)O6)C(OC(C)=O)C(C)O5)C(C)CC(C)C4C3(C)C(=O)C3=C(OC)C2(C1)OC3=O (stereo not drawn) : —

Value of measured MIC, EH for the entry COC(=O)NC1C(C)OC(OC2CC=C(C)C3C=CC4C(OC5C=CC(O)C(C)O5)C(C)CC(C)C4C3(C)C(=O)C3=C(O)C4(CC(C=O)=CC(OC(C)=O)C4C=C2C)OC3=O)CC1(C)[N+](=O)[O-] (stereo not drawn) : —

* * *

System: Enterococcus hirae ATCC10541
experiment description: Antibacterial activity, agar dilution method
Assay type: cell-based
measurement conditions: pH 7
measurement kind: MIC, EH (µg/mL)
Give the value in µg/mL but do not write µg/mL after it.

Value of measured MIC, EH for the entry COC(=O)NC1C(C)OC(OC2C/C=C(\C)C3C=CC4C(OC5CCCCO5)C(C)CC(C)C4C3(C)C(=O)C3=C(O)C4(CC(C=O)=CC(OC(C)=O)C4/C=C/2C)OC3=O)CC1(C)[N+](=O)[O-] (centres unmarked) : 1.56

Value of measured MIC, EH for the entry COC(=O)NC1C(C)OC(OC2CC=C(C)C3C=CC4C(OC5(C)OC6OC(COC(C)=O)C(OC(C)=O)C(OC(C)=O)C6O5)C(C)CC(C)C4C3(C)C(=O)C3=C(O)C4(CC(C=O)=CC(OC(C)=O)C4C=C2C)OC3=O)CC1(C)[N+](=O)[O-] (centres unmarked) : 60.0

* * *

System: Enterococcus hirae ATCC10541
experiment description: Antibacterial activity, agar dilution method
Format: cell-based
Design: key: —: Inactive
measurement conditions: pH 7

molecule	MIC, EH
COC(=O)NC1C(C)OC(OC2C/C=C(\C)C3C=CC4C(OC5CC(OC6CCC(OC7CC(OC(C)=O)C(O)C(C)O7)C(C)O6)C(OC(C)=O)C(C)O5)C(C)CC(C)C4C3(C)C(=O)C3=C(O)C4(CC(C=O)=CC(OC(C)=O)C4/C=C/2C)OC3=O)CC1(C)[N+](=O)[O-] (stereo not drawn)	—
COC(=O)NC1C(C)OC(OC2CC=C(C)C3C=CC4C(OC5CC(OC(C)=O)C(OC(C)=O)C(C)O5)C(C)CC(C)C4C3(C)C(=O)C3=C(O)C4(CC(C=O)=CC(OC(C)=O)C4C=C2C)OC3=O)CC1(C)[N+](=O)[O-] (stereo not drawn)	>66.7 µg/mL
COC(=O)NC1C(C)OC(OC2C/C=C(\C)C3C=CC4C(OC5CC(OC6CCC(OC7CC(O)C(O)C(C)O7)C(C)O6)C(OC(C)=O)C(C)O5)C(C)CC(C)C4C3(C)C(=O)C3=C(O)C4(CC(C=NO)=CC(O)C4/C=C/2C)OC3=O)CC1(C)[N+](=O)[O-] (stereo not drawn)	>92 µg/mL
